System: total α-tubulin
Assay: cell-based assay of MT-stabilization: total α-tubulin in QBI293 cell lysates by ELISA
Conditions: QBI293, 4 h, Table 4; QB1293 cells, 4 h, 1 μM; read-out: α-Tub l μM (fold-change over control (DMSO)-treated cells)
Where a name gives a salt, the structure may show the parent alone.
I'd appreciate it if you could supply fold induction at 1 µM values for the items below.
// response body must contain only the number

Param readout = fold induction at 1 µM; param system = total α-tubulin; param query = CC(C)[C@@H](C)Nc1c(-c2c(F)cc(C#CCCCO)cc2F)c(Cl)nc2ncnn12 ; response: value
1

Param readout = fold induction at 1 µM; param system = total α-tubulin; param query = CNCC#Cc1cc(F)c(-c2c(Cl)nc3ncnn3c2N[C@H](C)C(C)C)c(F)c1 [TAL-637, hydrochloride] ; response: value
0.96

Param readout = fold induction at 1 µM; param system = total α-tubulin; param query = C[C@@H](Nc1c(-c2c(F)cc(C#CCCN(C)C)cc2F)c(Cl)nc2ncnn12)C(C)(C)C ; response: value
0.88

Param readout = fold induction at 1 µM; param system = total α-tubulin; param query = CNCC#Cc1cc(F)c(-c2c(Cl)nc3ncnn3c2N[C@H](C)C(C)(C)C)c(F)c1 [TAL-638, hydrochloride] ; response: value
0.93

Param readout = fold induction at 1 µM; param system = total α-tubulin; param query = CC(C)[C@@H](C)Nc1c(-c2c(F)cc(C#CCN(C)C)cc2F)c(Cl)nc2ncnn12 ; response: value
0.98

Param readout = fold induction at 1 µM; param system = total α-tubulin; param query = CC(C)[C@@H](C)Nc1c(-c2c(F)cc(C#CCCO)cc2F)c(Cl)nc2ncnn12 ; response: value
0.92

Param readout = fold induction at 1 µM; param system = total α-tubulin; param query = C[C@H](Nc1c(-c2c(F)cc(C#CCCO)cc2F)c(Cl)nc2ncnn12)C(F)(F)F ; response: value
0.98
